Numbers sourced from patent US20220298235A1.

Test System: T1, Human IL12 (His Tag) (human, UniProt P29459 23-219; P29460 23-328)
T1 construct: Bought His-tagged heterodimer
T1 sequence (looked up) 1: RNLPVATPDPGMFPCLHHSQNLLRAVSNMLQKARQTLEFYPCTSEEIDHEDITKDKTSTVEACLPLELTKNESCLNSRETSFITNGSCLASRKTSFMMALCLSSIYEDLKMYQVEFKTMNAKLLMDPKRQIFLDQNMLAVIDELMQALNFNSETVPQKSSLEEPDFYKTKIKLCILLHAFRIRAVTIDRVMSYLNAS
T1 sequence (looked up) 2: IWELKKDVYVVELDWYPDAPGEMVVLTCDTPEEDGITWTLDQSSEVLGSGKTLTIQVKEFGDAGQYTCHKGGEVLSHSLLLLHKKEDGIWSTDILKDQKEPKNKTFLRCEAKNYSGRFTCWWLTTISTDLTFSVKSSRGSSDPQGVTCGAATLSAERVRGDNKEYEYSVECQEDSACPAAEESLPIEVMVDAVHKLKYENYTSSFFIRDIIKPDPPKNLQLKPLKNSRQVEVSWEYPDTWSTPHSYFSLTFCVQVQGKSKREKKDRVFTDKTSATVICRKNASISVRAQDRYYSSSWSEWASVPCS
Test Description: FACS competition, IL-12-His 20 nM on 293T-IL-12Rβ1&IL-23R cells; antibody 10 µg/mL
// MFI lookup, one value per entry
Give the value, in units of MFI, as a plain number.

Example results:
| Binder | MFI (MFI) |
| --- | --- |
| ustekinumab (antibody, V domains shown) VH: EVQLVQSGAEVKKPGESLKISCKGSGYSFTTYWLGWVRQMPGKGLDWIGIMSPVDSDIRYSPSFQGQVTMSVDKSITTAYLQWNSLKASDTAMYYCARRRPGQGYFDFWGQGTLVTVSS VL: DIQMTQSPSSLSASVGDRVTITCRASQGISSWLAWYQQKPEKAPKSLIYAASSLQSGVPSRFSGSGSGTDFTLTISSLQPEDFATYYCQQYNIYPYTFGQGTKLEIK | 31 |
| H5L9 (antibody, human IgG1, kappa, V domains shown, human IgG1 (P01857) / kappa (P01834) constant regions; also called humanized antibody H5L9) VH: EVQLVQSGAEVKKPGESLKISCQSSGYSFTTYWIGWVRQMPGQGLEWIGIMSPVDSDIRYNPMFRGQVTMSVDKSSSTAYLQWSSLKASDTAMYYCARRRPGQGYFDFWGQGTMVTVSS VL: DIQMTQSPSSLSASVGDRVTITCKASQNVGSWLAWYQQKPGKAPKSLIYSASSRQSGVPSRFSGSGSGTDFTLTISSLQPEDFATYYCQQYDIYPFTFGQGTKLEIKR | 134 |
| H5L14 (antibody, human IgG1, kappa, V domains shown, human IgG1 / kappa constant regions; also called humanized antibody H5L14) VH: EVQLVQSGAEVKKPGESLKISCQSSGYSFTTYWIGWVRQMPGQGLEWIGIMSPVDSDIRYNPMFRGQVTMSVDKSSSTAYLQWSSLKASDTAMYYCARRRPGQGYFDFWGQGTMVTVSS VL: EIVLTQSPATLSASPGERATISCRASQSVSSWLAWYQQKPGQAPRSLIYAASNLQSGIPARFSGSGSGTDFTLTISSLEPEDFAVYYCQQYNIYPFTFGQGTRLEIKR | 46.3 |

Sure, the documented MFI for H5L10 (antibody, human IgG1, kappa, V domains shown, human IgG1 / kappa constant regions; also called humanized antibody H5L10) VH: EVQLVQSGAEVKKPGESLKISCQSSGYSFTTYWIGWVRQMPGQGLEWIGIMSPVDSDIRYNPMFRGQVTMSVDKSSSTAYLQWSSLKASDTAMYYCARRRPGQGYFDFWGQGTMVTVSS VL: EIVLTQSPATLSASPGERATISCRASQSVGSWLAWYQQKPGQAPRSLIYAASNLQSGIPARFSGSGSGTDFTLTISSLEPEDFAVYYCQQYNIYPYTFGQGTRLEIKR is 34.1

Per the record, H5L11 (antibody, human IgG1, kappa, V domains shown, human IgG1 / kappa constant regions; also called humanized antibody H5L11) VH: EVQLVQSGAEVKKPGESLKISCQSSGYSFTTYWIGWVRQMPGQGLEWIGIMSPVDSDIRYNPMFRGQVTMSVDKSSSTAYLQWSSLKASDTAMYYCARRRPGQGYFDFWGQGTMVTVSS VL: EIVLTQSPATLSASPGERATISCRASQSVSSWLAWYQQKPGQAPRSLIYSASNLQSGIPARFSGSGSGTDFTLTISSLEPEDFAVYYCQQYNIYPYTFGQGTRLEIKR has MFI of 33.9

Given item H5L12 (antibody, human IgG1, kappa, V domains shown, human IgG1 / kappa constant regions; also called humanized antibody H5L12) VH: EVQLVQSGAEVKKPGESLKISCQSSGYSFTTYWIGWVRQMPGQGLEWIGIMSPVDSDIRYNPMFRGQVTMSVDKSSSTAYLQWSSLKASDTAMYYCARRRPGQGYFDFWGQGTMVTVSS VL: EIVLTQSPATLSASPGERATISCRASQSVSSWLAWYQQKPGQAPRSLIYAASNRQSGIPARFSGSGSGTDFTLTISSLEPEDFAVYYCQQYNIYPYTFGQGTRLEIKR , the value recorded as its MFI is 32.4
